Entry source: the supplement of paper PMC4466140

Parameter: SPOT peptide array binding signal intensity. Scope: all listed entries.
molecular target: AgHse1; assay: SPOT peptide array binding signal intensity (averaged, normalized) (arbitrary units (background-subtracted, floor 0; scale differs between SH3 domains)); higher = stronger binding of the SH3 domain to the peptide
Measured Metric: SPOT peptide array binding signal intensity

>>> recorded_result("LPPPPPPPPPPPLPQ")
21
>>> recorded_result("QNTPPLPPKPKSPHL")
39.5
>>> recorded_result("PLQSKIPMLPSRRTM")
300
>>> recorded_result("RSRRSSFAYPQQVAI")
254
>>> recorded_result("KKIRLIFTYPSTVGR")
1210
